- System: A498
- assay.protocol: Growth inhibition of human A498 cells at 10 uM incubated for 48 hrs by sulforhodamine B assay relative to control
- Format: functional
- condition.set: A498, 48 h, read-out: GI
property: inhibition of growth at 10 µM

- molecule: "COc1ccc(-c2nnc(CSC3=NC(c4ccc(F)cc4)C(C(C)=O)=C(C)N3)o2)cc1 (stereo not drawn)"
  endpoint.result: "< 10%"
- molecule: "CCOC(=O)C1=C(C)NC(SCc2nnc(-c3ccc(Cl)cc3)o2)=NC1c1ccc(Cl)cc1 (stereo not drawn)"
  endpoint.result: "19.3%"
- molecule: "CCOC(=O)C1=C(C)NC(SCc2nnc(-c3ccc(OC)cc3)o2)=NC1c1ccc(F)cc1 (stereo not drawn)"
  endpoint.result: "< 10%"
- molecule: "CCOC(=O)C1=C(C)NC(SCc2nnc(-c3ccc(Cl)cc3)o2)=NC1c1ccc(Br)cc1 (stereo not drawn)"
  endpoint.result: "26.8%"
- molecule: "CC(=O)C1=C(C)NC(SCc2nnc(-c3ccc(C)cc3)o2)=NC1c1ccc(F)cc1 (stereo not drawn)"
  endpoint.result: "< 10%"
- molecule: "CCOC(=O)C1=C(C)NC(SCc2nnc(-c3ccc(Cl)cc3)o2)=NC1c1ccccc1 (stereo not drawn)"
  endpoint.result: "< 10%"
- molecule: "CCOC(=O)C1=C(C)NC(SCc2nnc(-c3ccc(Cl)cc3)o2)=NC1c1cccc(Cl)c1 (stereo not drawn)"
  endpoint.result: "< 10%"
- molecule: "CCOC(=O)C1=C(C)NC(SCc2nnc(-c3ccc(C)cc3)o2)=NC1c1ccc(F)cc1 (stereo not drawn)"
  endpoint.result: "< 10%"
- molecule: "CCOC(=O)C1=C(C)NC(SCc2nnc(-c3ccc(Cl)cc3)o2)=NC1c1ccc(F)cc1 (stereo not drawn)"
  endpoint.result: "12.3%"
- molecule: "CC(=O)C1=C(C)NC(SCc2nnc(-c3ccc(Cl)cc3)o2)=NC1c1ccc(F)cc1 (stereo not drawn)"
  endpoint.result: "< 10%"
- molecule: "CC(=O)C1=C(C)NC(SCc2nnc(-c3ccc(Cl)cc3)o2)=NC1c1ccc(Cl)cc1 (stereo not drawn)"
  endpoint.result: "< 10%"
- molecule: "CCOC(=O)C1=C(C)NC(SCc2nnc(-c3ccc(Cl)cc3)o2)=NC1c1ccc(OC)cc1 (stereo not drawn)"
  endpoint.result: "< 10%"
- molecule: "CCOC(=O)C1=C(C)NC(SCc2nnc(-c3ccc(Cl)cc3)o2)=NC1c1ccc(Cl)cc1Cl (stereo not drawn)"
  endpoint.result: "22.3%"

* * *

# key: entry, value: inhibition of growth at 10 µM
- System: UO-31
- assay.protocol: Growth inhibition of human UO31 cells at 10 uM incubated for 48 hrs by sulforhodamine B assay relative to control
- Type: functional
- condition.set: UO-31, 48 h, read-out: GI
property: inhibition of growth at 10 µM (%)

- compound: "COc1ccc(-c2nnc(CSC3=NC(c4ccc(F)cc4)C(C(C)=O)=C(C)N3)o2)cc1 (stereo not drawn)"
  result.units: "%"
  relation.symbol: "="
  endpoint.result: 29.7
- compound: "CCOC(=O)C1=C(C)NC(SCc2nnc(-c3ccc(Cl)cc3)o2)=NC1c1ccc(OC)cc1 (stereo not drawn)"
  result.units: "%"
  relation.symbol: "="
  endpoint.result: 20.3
- compound: "CCOC(=O)C1=C(C)NC(SCc2nnc(-c3ccc(OC)cc3)o2)=NC1c1ccc(F)cc1 (stereo not drawn)"
  result.units: "%"
  relation.symbol: "="
  endpoint.result: 21.7
- compound: "CC(=O)C1=C(C)NC(SCc2nnc(-c3ccc(C)cc3)o2)=NC1c1ccc(F)cc1 (stereo not drawn)"
  result.units: "%"
  relation.symbol: "="
  endpoint.result: 16.4
- compound: "CC(=O)C1=C(C)NC(SCc2nnc(-c3ccc(Cl)cc3)o2)=NC1c1ccc(F)cc1 (stereo not drawn)"
  result.units: "%"
  relation.symbol: "="
  endpoint.result: 26.1
- compound: "CCOC(=O)C1=C(C)NC(SCc2nnc(-c3ccc(Cl)cc3)o2)=NC1c1ccccc1 (stereo not drawn)"
  result.units: "%"
  relation.symbol: "="
  endpoint.result: 19.4
- compound: "CCOC(=O)C1=C(C)NC(SCc2nnc(-c3ccc(Cl)cc3)o2)=NC1c1ccc(Cl)cc1 (stereo not drawn)"
  result.units: "%"
  relation.symbol: "="
  endpoint.result: 51.3
- compound: "CCOC(=O)C1=C(C)NC(SCc2nnc(-c3ccc(Cl)cc3)o2)=NC1c1cccc(Cl)c1 (stereo not drawn)"
  result.units: "%"
  relation.symbol: "="
  endpoint.result: 35.9
- compound: "CCOC(=O)C1=C(C)NC(SCc2nnc(-c3ccc(Cl)cc3)o2)=NC1c1ccc(F)cc1 (stereo not drawn)"
  result.units: "%"
  relation.symbol: "="
  endpoint.result: 22.2
- compound: "CCOC(=O)C1=C(C)NC(SCc2nnc(-c3ccc(C)cc3)o2)=NC1c1ccc(F)cc1 (stereo not drawn)"
  result.units: "%"
  relation.symbol: "<"
  endpoint.result: 10
- compound: "CCOC(=O)C1=C(C)NC(SCc2nnc(-c3ccc(Cl)cc3)o2)=NC1c1ccc(Cl)cc1Cl (stereo not drawn)"
  result.units: "%"
  relation.symbol: "="
  endpoint.result: 62.8
- compound: "CCOC(=O)C1=C(C)NC(SCc2nnc(-c3ccc(Cl)cc3)o2)=NC1c1ccc(Br)cc1 (stereo not drawn)"
  result.units: "%"
  relation.symbol: "="
  endpoint.result: 47.6
- compound: "CC(=O)C1=C(C)NC(SCc2nnc(-c3ccc(Cl)cc3)o2)=NC1c1ccc(Cl)cc1 (stereo not drawn)"
  result.units: "%"
  relation.symbol: "="
  endpoint.result: 43.6
